target: human cannabinoid receptor type II (CB2R) (Homo sapiens, UniProt P34972); experiment: cell-based; type: cell-based; design: Normalized Activity at 1 μM, CB2R; other: PINACA compounds, 1 μM; Normalized Activity at 1 μm, CB2R; other: 5-fluoro PB-22 isomers, 1 μm; other: MFα-CB2R, ST03 sterol strain, pH 5.8; activity against CB2R; other: at 10 nM, dose response; preference at CB2R of ADB-BINACA over AB-PINACA; signaling at CB2R in synthetic cannabinoid screen; fused on or other part: yeast mating factor alpha (MFα) pre-pro leader fused at the N-terminus as a trafficking signal; settings: 5-fluoro PB-22 isomers, 1 μm
Sequence (P34972 whole entry, the tested form may be a part): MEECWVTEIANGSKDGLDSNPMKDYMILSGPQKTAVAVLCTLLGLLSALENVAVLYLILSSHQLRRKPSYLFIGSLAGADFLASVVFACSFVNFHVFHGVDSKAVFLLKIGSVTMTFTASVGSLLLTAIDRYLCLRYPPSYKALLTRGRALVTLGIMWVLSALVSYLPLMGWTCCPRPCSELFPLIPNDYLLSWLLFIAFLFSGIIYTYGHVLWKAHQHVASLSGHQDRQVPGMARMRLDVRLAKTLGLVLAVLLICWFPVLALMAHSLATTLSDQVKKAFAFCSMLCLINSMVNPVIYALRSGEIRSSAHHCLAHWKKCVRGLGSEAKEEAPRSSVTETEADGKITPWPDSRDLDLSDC
parameter: Normalized Activity at 1 μm, CB2R
Give the value as a plain number.

compound	system	Normalized Activity at 1 μm, CB2R
CCCC(F)Cn1nc(C(=O)Oc2cccc3cccnc23)c2ccccc21 (stereo not drawn)	human cannabinoid receptor type II (CB2R) (Homo sapiens, UniProt P34972)	0.582

Form field: Normalized Activity at 1 μm, CB2R recorded for O=C(Oc1ccnc2ccccc12)c1cn(CCCCCF)c2ccccc12 [drawing 16] with human cannabinoid receptor type II (CB2R) (Homo sapiens, UniProt P34972) (enter value) 0.247

Form field: Normalized Activity at 1 μm, CB2R recorded for `O=C(Oc1cccc2ccncc12)c1cn(CCCCCF)c2ccccc12` with human cannabinoid receptor type II (CB2R) (Homo sapiens, UniProt P34972) (enter value) 0.771

Form field: Normalized Activity at 1 μm, CB2R recorded for `O=C(Oc1ccc2cnccc2c1)c1cn(CCCCCF)c2ccccc12` with human cannabinoid receptor type II (CB2R) (Homo sapiens, UniProt P34972) (enter value) 0.331

Form field: Normalized Activity at 1 μm, CB2R recorded for `O=C(Oc1ccc2ncccc2c1)c1cn(CCCCCF)c2ccccc12` with human cannabinoid receptor type II (CB2R) (Homo sapiens, UniProt P34972) (enter value) 0.141

Form field: Normalized Activity at 1 μm, CB2R recorded for `O=C(Oc1ccc2ccncc2c1)c1cn(CCCCCF)c2ccccc12` with human cannabinoid receptor type II (CB2R) (Homo sapiens, UniProt P34972) (enter value) 0.339
